TESTED SYSTEM: Bombyx mori EcR (VP16 fusion, CVBE switch construct) (Bombyx mori, UniProt P49881)
Sequence (P49881 86-606): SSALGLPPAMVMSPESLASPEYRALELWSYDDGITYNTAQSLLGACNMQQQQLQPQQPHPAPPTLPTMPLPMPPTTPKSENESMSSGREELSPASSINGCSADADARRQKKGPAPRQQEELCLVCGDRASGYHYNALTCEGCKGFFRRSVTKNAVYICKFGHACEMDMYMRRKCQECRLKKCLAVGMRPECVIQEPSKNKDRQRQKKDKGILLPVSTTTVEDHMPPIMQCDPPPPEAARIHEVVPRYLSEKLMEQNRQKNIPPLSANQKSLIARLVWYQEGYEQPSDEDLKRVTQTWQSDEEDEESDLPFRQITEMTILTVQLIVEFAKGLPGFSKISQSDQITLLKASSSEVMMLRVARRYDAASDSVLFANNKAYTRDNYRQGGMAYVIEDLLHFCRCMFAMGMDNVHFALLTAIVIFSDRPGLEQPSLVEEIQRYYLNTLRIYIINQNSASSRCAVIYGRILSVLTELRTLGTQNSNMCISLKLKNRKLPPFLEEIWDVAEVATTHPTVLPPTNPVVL
Sequence (P19793 whole entry partner, the tested form may be a part): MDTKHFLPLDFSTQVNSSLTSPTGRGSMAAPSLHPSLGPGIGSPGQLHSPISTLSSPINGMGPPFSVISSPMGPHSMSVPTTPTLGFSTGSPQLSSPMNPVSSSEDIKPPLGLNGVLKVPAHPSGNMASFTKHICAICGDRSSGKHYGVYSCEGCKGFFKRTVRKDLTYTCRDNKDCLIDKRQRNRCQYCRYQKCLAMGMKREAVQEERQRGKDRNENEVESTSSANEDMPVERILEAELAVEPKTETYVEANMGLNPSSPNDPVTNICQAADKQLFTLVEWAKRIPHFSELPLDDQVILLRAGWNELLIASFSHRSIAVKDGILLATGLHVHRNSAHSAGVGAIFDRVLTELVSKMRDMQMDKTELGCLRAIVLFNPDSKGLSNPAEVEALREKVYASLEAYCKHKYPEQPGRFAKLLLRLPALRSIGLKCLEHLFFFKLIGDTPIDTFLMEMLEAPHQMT
TEST DESCRIPTION: Z3 Assay (HEK-293 cells with CVBE and 6XEcRE LacZ, β-galactosidase reporter)
CONDITION DESCRIPTION: read-out: Z3 assay EC50; HEK-293 Z3 cells, β-galactosidase reporter; average of two wells
Listed here: items and their measured pEC50.
Would you please state pEC50, meaning minus log10 of the concentration in mol/L, as a bare number?

Known results for compounds:
I looked up "COc1cccc(C(=O)N(NC(=O)c2ccc3c(c2C)OCCO3)C(C)(C)C)c1" and its pEC50 for Bombyx mori EcR (VP16 fusion, CVBE switch construct) (Bombyx mori, UniProt P49881) was 6.59

I looked up "Cc1c(C(=O)NN(C(=O)c2cc(F)cc(F)c2)C(C)(C)C)ccc2c1CCCO2" and its pEC50 for Bombyx mori EcR (VP16 fusion, CVBE switch construct) (Bombyx mori, UniProt P49881) was 6.59

More entries:
I looked up "CCc1c(OC)cccc1C(=O)NN(C(=O)c1cc2ccccc2n1C)C(C)(C)C" and its pEC50 for Bombyx mori EcR (VP16 fusion, CVBE switch construct) (Bombyx mori, UniProt P49881) was 5.59

I looked up "CCc1ccc(C(=O)NN(C(=O)c2cccc([N+](=O)[O-])c2)C(C)(C)C)c(F)c1" and its pEC50 for Bombyx mori EcR (VP16 fusion, CVBE switch construct) (Bombyx mori, UniProt P49881) was 6.62

I looked up "CC(C)(C)N(NC(=O)c1c(F)cccc1F)C(=O)c1cc(Cl)cc(Cl)c1" and its pEC50 for Bombyx mori EcR (VP16 fusion, CVBE switch construct) (Bombyx mori, UniProt P49881) was 6.05

I looked up "CCc1ccc(C(=O)NN(C(=O)c2ccccc2[N+](=O)[O-])C(C)(C)C)cc1" and its pEC50 for Bombyx mori EcR (VP16 fusion, CVBE switch construct) (Bombyx mori, UniProt P49881) was 5.83

I looked up "CCc1c(OC)cccc1C(=O)NN(C(=O)c1cc(Cl)ccc1OC)C(C)(C)C" and its pEC50 for Bombyx mori EcR (VP16 fusion, CVBE switch construct) (Bombyx mori, UniProt P49881) was 6.57

I looked up "CCc1c(OC)cccc1C(=O)NN(C(=O)c1cc(C)cc(COC(C)=O)c1)C(C)(C)C" and its pEC50 for Bombyx mori EcR (VP16 fusion, CVBE switch construct) (Bombyx mori, UniProt P49881) was 5.72

I looked up "Cc1cc(C)cc(C(=O)N(NC(=O)c2cccc(I)c2C)C(C)(C)C)c1" and its pEC50 for Bombyx mori EcR (VP16 fusion, CVBE switch construct) (Bombyx mori, UniProt P49881) was 6.84

I looked up "CCc1c(OC)cccc1C(=O)NN(C(=O)c1ccc(Cl)cc1OC)C(C)(C)C" and its pEC50 for Bombyx mori EcR (VP16 fusion, CVBE switch construct) (Bombyx mori, UniProt P49881) was 6.50

I looked up "CCc1c(C(=O)NN(C(=O)c2cc(Cl)nc(Cl)c2)C(C)(C)C)ccc2c1OCCO2" and its pEC50 for Bombyx mori EcR (VP16 fusion, CVBE switch construct) (Bombyx mori, UniProt P49881) was 7.18

I looked up "CCc1c(OC)cccc1C(=O)NN(C(=O)c1cc(C)cc(C)c1)C(C)(C)C=NCCO" and its pEC50 for Bombyx mori EcR (VP16 fusion, CVBE switch construct) (Bombyx mori, UniProt P49881) was 4.41

====

TESTED SYSTEM: Bombyx mori EcR (VP16 fusion, CVBE switch construct) (Bombyx mori)
TEST DESCRIPTION: Z3 Assay (HEK-293 cells with CVBE and 6XEcRE LacZ, β-galactosidase reporter)
CONDITION DESCRIPTION: 33 uM ligand; ligand treated / DMSO treated cells; average of two wells
METRIC: Fold Induction, Z3 Assay, 33 uM
Please give the numeric answer without any surrounding text.

Kindly note the recorded Fold Induction, Z3 Assay, 33 uM for "COc1cc(C(=O)NN(C(=O)c2cc(C)cc(C)c2)C(C)(C)C)ccc1C" , which is 330

Kindly note the recorded Fold Induction, Z3 Assay, 33 uM for "CCc1c(OC)cccc1C(=O)NN(C(=O)c1cc(C)ccc1[N+](=O)[O-])C(C)(C)C" , which is 772

Kindly note the recorded Fold Induction, Z3 Assay, 33 uM for "CCc1c(OC)cccc1C(=O)NN(C(=O)c1cc(Cl)ccc1[N+](=O)[O-])C(C)(C)C" , which is 691

Kindly note the recorded Fold Induction, Z3 Assay, 33 uM for "Cc1c(C(=O)NN(C(=O)c2cc(F)cc(F)c2)C(C)(C)C)ccc2c1CCCO2" , which is 508

Kindly note the recorded Fold Induction, Z3 Assay, 33 uM for "CCc1c(OC)cccc1C(=O)NN(C(=O)c1cc(C)cc(C)c1)C(C)(C)C=NNC(=O)C(N)=O" , which is 942

More entries:
Kindly note the recorded Fold Induction, Z3 Assay, 33 uM for CCCCC(CC)N(NC(=O)c1cccc(C)c1C)C(=O)c1ccccc1 (racemic) , which is 244

Kindly note the recorded Fold Induction, Z3 Assay, 33 uM for "Cc1cc(C)cc(C(=O)N(NC(=O)c2ccc3c(c2)CCCC3)C(C)(C)C)c1" , which is 334

Kindly note the recorded Fold Induction, Z3 Assay, 33 uM for "CCc1c(OC)cccc1C(=O)NN(C(=O)c1nc(SC)cnc1Cl)C(C)(C)C" , which is 66

Kindly note the recorded Fold Induction, Z3 Assay, 33 uM for "Cc1ccc([N+](=O)[O-])c(C(=O)N(NC(=O)c2ccc3c(c2C)CCCO3)C(C)(C)C)c1" , which is 620

Kindly note the recorded Fold Induction, Z3 Assay, 33 uM for "Cc1cc(C)cc(C(=O)N(NC(=O)c2cccc([N+](=O)[O-])c2C)C(C)(C)C)c1" , which is 1292

====

TESTED SYSTEM: GAL4 DBD (1-147)-CfEcR(DEF)/VP16AD-βRXREF-LmUSPEF (Choristoneura fumiferana)
TEST DESCRIPTION: cell-based
CONDITION DESCRIPTION: maximum fold induction at any concentration relative to that of GS-E ligand; CHO 27-63 cells
METRIC: 27-63 assay Rel Max FI
Please give the numeric answer without any surrounding text.

I looked up CCc1ccc(C(=O)NN(C(=O)c2ccccc2CC)C(C)(C)C)cc1 [RG-102592] and its 27-63 assay Rel Max FI for GAL4 DBD (1-147)-CfEcR(DEF)/VP16AD-βRXREF-LmUSPEF (Choristoneura fumiferana) was 0.798

I looked up CCc1ccc(C(=O)NN(C(=O)c2cc(C)c(C)c(Cl)c2)C(C)(C)C)cc1 [RG-101863] and its 27-63 assay Rel Max FI for GAL4 DBD (1-147)-CfEcR(DEF)/VP16AD-βRXREF-LmUSPEF (Choristoneura fumiferana) was 1.043

I looked up COc1ccccc1C(=O)N(NC(=O)c1ccc2c(c1C)CCCO2)C(C)(C)C [RG-115102] and its 27-63 assay Rel Max FI for GAL4 DBD (1-147)-CfEcR(DEF)/VP16AD-βRXREF-LmUSPEF (Choristoneura fumiferana) was 0.667

I looked up CCCCC(N(NC(=O)c1cccc(OC)c1C)C(=O)c1cc(C)cc(C)c1)C(C)(C)C (stereo not shown) [RG-115851] and its 27-63 assay Rel Max FI for GAL4 DBD (1-147)-CfEcR(DEF)/VP16AD-βRXREF-LmUSPEF (Choristoneura fumiferana) was 1

I looked up CCc1c(OC)cccc1C(=O)NN(C(=O)c1c(F)cccc1F)C(C)(C)C [RG-115033] and its 27-63 assay Rel Max FI for GAL4 DBD (1-147)-CfEcR(DEF)/VP16AD-βRXREF-LmUSPEF (Choristoneura fumiferana) was 0.868

I looked up CCc1c(C(=O)NN(C(=O)c2cc(OC)c(C)c(OC)c2)C(CC)C(C)(C)C)ccc2c1OCCO2 (stereo not shown) [RG-115859] and its 27-63 assay Rel Max FI for GAL4 DBD (1-147)-CfEcR(DEF)/VP16AD-βRXREF-LmUSPEF (Choristoneura fumiferana) was 1.218

I looked up CCc1ccc(C(=O)NN(C(=O)c2cc(C)cc(C)c2)C(c2ccccc2)C(C)(C)C)cc1 (stereo not shown) [RG-115846] and its 27-63 assay Rel Max FI for GAL4 DBD (1-147)-CfEcR(DEF)/VP16AD-βRXREF-LmUSPEF (Choristoneura fumiferana) was 0.846

I looked up COc1cc(C)cc(C(=O)N(NC(=O)c2cccc(OC)c2C)C(C)(C)C)c1 [RG-100767] and its 27-63 assay Rel Max FI for GAL4 DBD (1-147)-CfEcR(DEF)/VP16AD-βRXREF-LmUSPEF (Choristoneura fumiferana) was 1.218

Now consider a different molecule.
I looked up COc1cccc(C(=O)NN(C(=O)c2cc(C)ccc2Cl)C(C)(C)C)c1Cl [RG-101248] and its 27-63 assay Rel Max FI for GAL4 DBD (1-147)-CfEcR(DEF)/VP16AD-βRXREF-LmUSPEF (Choristoneura fumiferana) was 0.790
